# testTarget: human CSNK1G3 (Homo sapiens (Human), UniProt Q9Y6M4)
# Sequence (Q9Y6M4 whole entry): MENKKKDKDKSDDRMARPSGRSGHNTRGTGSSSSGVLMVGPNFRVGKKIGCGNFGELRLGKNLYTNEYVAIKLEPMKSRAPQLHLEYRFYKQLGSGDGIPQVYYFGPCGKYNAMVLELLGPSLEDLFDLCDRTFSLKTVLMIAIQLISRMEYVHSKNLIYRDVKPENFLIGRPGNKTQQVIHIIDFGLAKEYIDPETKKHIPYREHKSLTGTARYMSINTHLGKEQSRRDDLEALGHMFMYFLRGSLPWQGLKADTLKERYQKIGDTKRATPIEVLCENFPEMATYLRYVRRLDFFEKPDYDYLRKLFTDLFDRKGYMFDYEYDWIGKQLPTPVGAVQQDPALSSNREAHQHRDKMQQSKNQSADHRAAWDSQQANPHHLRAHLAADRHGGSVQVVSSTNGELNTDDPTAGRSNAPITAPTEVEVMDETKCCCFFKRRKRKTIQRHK
For each record, check the reported IC50: if it is below 30 nM write 1, else write 0.

Recorded results for 2 compounds are shown here.
O=C(Nc1cc(-c2[nH]c3c(OCC(F)F)ncnc3c2-c2ccccn2)ccn1)[C@@H](CC(F)F)c1ccc(F)cc1 [Example C3, reference compound]; 1
O=C(Cc1ccns1)Nc1cc(-c2[nH]c3cccnc3c2-c2ccccn2)ccn1; 1

Incoming: Below 30 nM on IC50? Entry Cc1nc(CC(=O)Nc2cc(-c3[nH]c4cccnc4c3-c3ccccn3)ccn2)co1
Outgoing: 0

----------
Here, each record is paired with measured IC50 data.
# testTarget: human CSNK1A1 (Homo sapiens (Human), UniProt P48729)
# Sequence (P48729 whole entry): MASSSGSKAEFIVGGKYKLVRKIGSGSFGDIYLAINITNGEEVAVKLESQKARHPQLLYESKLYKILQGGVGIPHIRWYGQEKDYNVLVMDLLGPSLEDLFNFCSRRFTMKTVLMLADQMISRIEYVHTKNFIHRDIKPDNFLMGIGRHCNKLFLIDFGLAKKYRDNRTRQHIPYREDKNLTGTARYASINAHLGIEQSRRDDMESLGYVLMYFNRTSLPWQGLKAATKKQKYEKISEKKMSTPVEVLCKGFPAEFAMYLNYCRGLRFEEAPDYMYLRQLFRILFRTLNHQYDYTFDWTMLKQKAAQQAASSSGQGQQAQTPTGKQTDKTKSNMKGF
# assayText: CSNK1A1 high ATP assay (ADP-Glo, 1 mM ATP)
# Assay type: biochemical
# studyConditions: median, read-out: CSNK1A1 High ATP assay IC50 [mol/l] (median)
Number only, in nM; omit the unit.

Guide cases for IC50, answers given:
O=C(Cc1cnc2ccccc2n1)Nc1cc(-c2[nH]c3cccnc3c2-c2ccccn2)ccn1; 6.06
Cn1cnc(CC(=O)Nc2cc(-c3[nH]c4cccnc4c3-c3ccccn3)ccn2)c1; 589

IC50 reported for this compound O=C(Cc1cc(C2CC2)on1)Nc1cc(-c2[nH]c3cccnc3c2-c2ccccn2)ccn1 : 244

IC50 reported for this compound Cc1noc(C)c1CC(=O)Nc1cc(-c2[nH]c3cccnc3c2-c2ccccn2)ccn1 : 66.9

Where do these numbers come from? They come from patent US20250188075A1.
